System: PC12 cells
Assay: MTT toxicity (safety evaluation) on PC12 nerve cells
Type: cell-based
Conditions: PC12, 30 μM, 24 h
List of Relative growth rate (%) 24 h values.
// note: answer is a bare numeric in %

Use these answered entries as a reference point.
COc1cc(/C=C2\CN(C(C)C)C/C(=C\c3cc(Cl)c(O)c(OC)c3)C2=O)cc(Cl)c1O
56.50
CC(C)N1C/C(=C\c2cc(Cl)c(O)c(Cl)c2)C(=O)/C(=C/c2cc(Cl)c(O)c(Cl)c2)C1
99.66
CCN1C/C(=C\c2cc(Cl)c(O)c(Cl)c2)C(=O)/C(=C/c2cc(Cl)c(O)c(Cl)c2)C1
82.96
COc1cc(/C=C2\CNC/C(=C\c3cc(Cl)c(O)c(OC)c3)C2=O)cc(Cl)c1O
94.56
O=C1/C(=C/c2cc(Cl)c(O)c(Cl)c2)CNC/C1=C\c1cc(Cl)c(O)c(Cl)c1
101.62

Return reported Relative growth rate (%) 24 h; argument: `CN1C/C(=C\c2cc(Cl)c(O)c(Cl)c2)C(=O)/C(=C/c2cc(Cl)c(O)c(Cl)c2)C1`
99.48

Return reported Relative growth rate (%) 24 h; argument: `COc1cc(/C=C2\CN(C)C/C(=C\c3cc(Cl)c(O)c(OC)c3)C2=O)cc(Cl)c1O`
53.24

====

System: PC12 cells
Assay: MTT toxicity (safety evaluation) on PC12 nerve cells
Type: cell-based
Details: PC12, 15 μM, 48 h
List of Relative growth rate (%) 48 h values.
// note: answer is a bare numeric in %

O=C1/C(=C/c2cc(Cl)c(O)c(Cl)c2)CNC/C1=C\c1cc(Cl)c(O)c(Cl)c1 [CAK01]
99.33
CN1C/C(=C\c2cc(Cl)c(O)c(Cl)c2)C(=O)/C(=C/c2cc(Cl)c(O)c(Cl)c2)C1 [CAK02]
95.22

Return reported Relative growth rate (%) 48 h; argument: COc1cc(/C=C2\CN(C(C)C)C/C(=C\c3cc(Cl)c(O)c(OC)c3)C2=O)cc(Cl)c1O [CAK05]
22.26

Return reported Relative growth rate (%) 48 h; argument: COc1cc(/C=C2\CNC/C(=C\c3cc(Cl)c(O)c(OC)c3)C2=O)cc(Cl)c1O [CAK06]
88.82

Return reported Relative growth rate (%) 48 h; argument: COc1cc(/C=C2\CN(C)C/C(=C\c3cc(Cl)c(O)c(OC)c3)C2=O)cc(Cl)c1O [CAK07]
30.99

Return reported Relative growth rate (%) 48 h; argument: CCN1C/C(=C\c2cc(Cl)c(O)c(Cl)c2)C(=O)/C(=C/c2cc(Cl)c(O)c(Cl)c2)C1 [CAK03]
89.84

Return reported Relative growth rate (%) 48 h; argument: CC(C)N1C/C(=C\c2cc(Cl)c(O)c(Cl)c2)C(=O)/C(=C/c2cc(Cl)c(O)c(Cl)c2)C1 [CAK04]
99.75
